All figures here come from ChEMBL document CHEMBL1132734.

Reported pKi, Adenosine receptor A2a (Rattus norvegicus).
pKi: −log10 of the molar value.
READOUT_LABEL: pKi

SMILES_DATA: O=[N+]([O-])c1cc(NCc2cccc(I)c2)c2ncn([C@@H]3O[C@H](CO)[C@@H](O)[C@H]3O)c2n1
TARGET_ENTITY: Adenosine receptor A2a (Rattus norvegicus)
Sequence (P30543 whole entry): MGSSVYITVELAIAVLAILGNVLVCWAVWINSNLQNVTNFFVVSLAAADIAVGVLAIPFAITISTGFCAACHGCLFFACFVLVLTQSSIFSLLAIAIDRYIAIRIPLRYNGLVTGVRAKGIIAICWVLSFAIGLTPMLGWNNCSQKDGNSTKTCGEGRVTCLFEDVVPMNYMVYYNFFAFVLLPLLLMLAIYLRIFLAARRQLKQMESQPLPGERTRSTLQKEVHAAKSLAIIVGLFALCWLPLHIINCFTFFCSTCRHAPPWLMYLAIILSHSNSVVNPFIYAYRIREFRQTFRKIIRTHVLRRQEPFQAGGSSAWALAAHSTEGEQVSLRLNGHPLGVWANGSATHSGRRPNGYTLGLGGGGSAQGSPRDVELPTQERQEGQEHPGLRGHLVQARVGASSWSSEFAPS
READOUT_VALUE: 6.68

a = O=[N+]([O-])c1nc(NC2CCCC2)c2ncn([C@@H]3O[C@H](CO)[C@@H](O)[C@H]3O)c2n1
b = Nc1nc([N+](=O)[O-])nc2c1ncn2[C@@H]1O[C@H](CO)[C@@H](O)[C@H]1O
Sort a and b by pKi descending and give the first. Give the label of your selection.
b
